experimental-target: atypical chemokine receptor ACKR3 (formerly CXCR7) (human, UniProt P25106 1-362)
Sequence (P25106 whole entry): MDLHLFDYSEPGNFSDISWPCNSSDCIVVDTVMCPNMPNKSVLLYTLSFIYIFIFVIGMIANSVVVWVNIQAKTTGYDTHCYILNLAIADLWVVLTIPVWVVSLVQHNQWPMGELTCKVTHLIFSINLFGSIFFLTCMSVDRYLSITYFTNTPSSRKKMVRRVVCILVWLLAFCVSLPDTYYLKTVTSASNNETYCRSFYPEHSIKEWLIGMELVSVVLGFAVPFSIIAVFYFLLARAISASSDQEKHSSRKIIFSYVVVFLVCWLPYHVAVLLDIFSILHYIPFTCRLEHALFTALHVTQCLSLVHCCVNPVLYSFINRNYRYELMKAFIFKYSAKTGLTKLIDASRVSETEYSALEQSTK
protocol-summary: flow cytometry on cells
No end group written: not given here.
readout-label: IC50

[
  {
    "binder": "GGFLRRIRPKLK-NH2 [Dynorphin A 2-13-NH2]",
    "observed-measurement": "> 10 µM"
  },
  {
    "binder": "FGGFTGARKSARK-NH2 [Nociceptin 1-13-NH2]",
    "observed-measurement": "> 10 µM"
  },
  {
    "binder": "YPWF-NH2 [Endomorphin-1]",
    "observed-measurement": "> 10 µM"
  },
  {
    "binder": "YGGFLRRQFKVVT [Dynorphin B]",
    "observed-measurement": "~1 µM"
  },
  {
    "binder": "FGGFTGARKSARK-NH2 (also: ψ(CH2-NH) bond between Phe1 and Gly2) [[Phe1Ψ(CH2-NH)-gly2]nociceptin-(1-13)-NH2]",
    "observed-measurement": "> 10 µM"
  },
  {
    "binder": "GGFLRRIRPKLKWDNQ [Dynorphin A 2-17]",
    "observed-measurement": "~10 µM"
  }
]

The measured values listed here are drawn from paper PMC7305236.
